Quick reference for growth at 100 µM among some compounds
system: HOP-62; experiment: Growth inhibition of human HOP-62 cells assessed as cell growth at 100 uM incubated for 48 hrs by sulforhodamine B assay relative to control; assay type: functional; settings: read-out: Activity
The reply should be a number in %, with the unit left off.

1) CCc1cccc(C)c1NC(=O)c1sc2nc3c(cc2c1N)C(=O)CCC3    28
2) COc1cccc(NC(=O)c2sc3nc4c(cc3c2N)CN(Cc2ccccc2)CC4)c1    -71
3) Nc1c(C(=O)Nc2ccccc2)sc2nc3c(cc12)CN(Cc1ccccc1)CC3    -24
4) CN1CCc2nc3sc(C(N)=O)c(N)c3c(-c3cccs3)c2C1    2

The recorded growth at 100 µM for Cc1cc(C)c(NC(=O)c2sc3nc4c(cc3c2N)CN(Cc2ccccc2)CC4)c(C)c1 is 7

---

test system: HT-29; assay: Growth inhibition of human HT-29 cells incubated for 48 hrs by sulforhodamine B assay; format: functional
endpoint label: LC50

Solved cases below.
1) CN1CCc2nc3sc(C(N)=O)c(N)c3c(-c3cccs3)c2C1    > 100 µM
2) Nc1c(C(=O)Nc2ccccc2)sc2nc3c(cc12)CN(Cc1ccccc1)CC3    > 100 µM
3) Cc1cc(C)c(NC(=O)c2sc3nc4c(cc3c2N)CN(Cc2ccccc2)CC4)c(C)c1    > 100 µM
4) Cc1ccc(NC(=O)c2sc3nc4c(cc3c2N)C(=O)CCC4)cc1C    > 100 µM
5) Cc1cccc(NC(=O)c2sc3nc4c(cc3c2N)C(=O)CCC4)c1    ≥ 100 µM

Looking up COc1cccc(NC(=O)c2sc3nc4c(cc3c2N)CN(Cc2ccccc2)CC4)c1 , I see its LC50 listed as 56.2 µM

Note to self: LC50 recorded for CCc1ccccc1NC(=O)c1sc2nc3c(cc2c1N)C(=O)CCC3 was > 100 µM

---

// growth at 0.1 µM lookup, one value per entry
tested on: OVCAR-5; assay: Growth inhibition of human OVCAR-5 cells assessed as cell growth at 0.1 uM incubated for 48 hrs by sulforhodamine B assay relative to control; type: functional; settings: read-out: Activity
Please reply with the bare figure in % and do not write the unit itself.

Answered examples (6):
1. CCc1cccc(C)c1NC(=O)c1sc2nc3c(cc2c1N)C(=O)CCC3    88
2. Nc1c(C(=O)Nc2ccccc2)sc2nc3c(cc12)CN(Cc1ccccc1)CC3    92
3. Cc1ccc(NC(=O)c2sc3nc4c(cc3c2N)C(=O)CCC4)cc1C    87
4. COc1cccc(NC(=O)c2sc3nc4c(cc3c2N)CN(Cc2ccccc2)CC4)c1    95
5. CCc1ccccc1NC(=O)c1sc2nc3c(cc2c1N)C(=O)CCC3    83
6. Cc1cc(C)c(NC(=O)c2sc3nc4c(cc3c2N)CN(Cc2ccccc2)CC4)c(C)c1    96

Memo: Cc1cccc(NC(=O)c2sc3nc4c(cc3c2N)C(=O)CCC4)c1 , reported growth at 0.1 µM: 86

---

test system: SK-MEL-2; experiment: Growth inhibition of human SK-MEL-2 cells assessed as cell growth at 10 uM incubated for 48 hrs by sulforhodamine B assay relative to control; assay type: functional; settings: read-out: Activity
# growth at 10 µM listing for each entry below
Provide only the numeric value, understood in %.

Reference set, count: 4
1) CC(C)N1CCc2nc3sc(C(=O)Nc4ccccc4)c(N)c3cc2C1    114
2) Cc1cccc(NC(=O)c2sc3nc4c(cc3c2N)CN(Cc2ccccc2)CC4)c1    129
3) CC(=O)c1ccc2c(N)c(C(=O)Nc3ccccc3)sc2n1    107
4) Cc1cc(C)c(NC(=O)c2sc3nc4c(cc3c2N)CN(Cc2ccccc2)CC4)c(C)c1    34

Next up:
Notebook: CCc1ccccc1NC(=O)c1sc2nc3c(cc2c1N)C(=O)CCC3 , growth at 10 µM read as 19.9
